Listing of recorded fold repression by entry.
Target: T1, ECF17_1458
T1 chain: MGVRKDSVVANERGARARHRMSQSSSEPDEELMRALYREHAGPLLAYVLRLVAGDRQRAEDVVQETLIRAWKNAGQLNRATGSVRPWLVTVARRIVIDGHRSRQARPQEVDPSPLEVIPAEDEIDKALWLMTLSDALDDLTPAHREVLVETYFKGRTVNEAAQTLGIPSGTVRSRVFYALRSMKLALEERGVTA
parameter measured: fold repression

1. AS02_915 (protein) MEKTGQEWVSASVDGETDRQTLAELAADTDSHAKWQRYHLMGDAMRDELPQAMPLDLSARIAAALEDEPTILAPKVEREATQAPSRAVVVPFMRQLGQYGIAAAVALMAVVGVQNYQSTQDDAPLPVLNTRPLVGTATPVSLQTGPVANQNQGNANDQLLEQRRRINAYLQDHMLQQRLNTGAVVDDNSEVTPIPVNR
2.74
2. AS25_1643_cl43 (protein) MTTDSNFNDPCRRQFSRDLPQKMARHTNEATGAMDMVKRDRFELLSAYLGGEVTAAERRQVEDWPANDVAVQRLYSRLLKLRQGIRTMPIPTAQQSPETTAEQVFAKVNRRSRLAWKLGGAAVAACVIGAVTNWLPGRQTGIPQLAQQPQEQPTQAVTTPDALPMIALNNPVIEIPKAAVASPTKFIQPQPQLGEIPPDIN
2.2
3. AS11_987 (protein) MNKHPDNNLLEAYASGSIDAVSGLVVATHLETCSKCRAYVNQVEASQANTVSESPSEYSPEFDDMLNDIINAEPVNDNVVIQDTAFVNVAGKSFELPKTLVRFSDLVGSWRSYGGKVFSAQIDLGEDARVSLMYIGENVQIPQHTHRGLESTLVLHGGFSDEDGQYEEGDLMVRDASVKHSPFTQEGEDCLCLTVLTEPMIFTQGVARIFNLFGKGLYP
2.13
4. AS22_4450 (protein) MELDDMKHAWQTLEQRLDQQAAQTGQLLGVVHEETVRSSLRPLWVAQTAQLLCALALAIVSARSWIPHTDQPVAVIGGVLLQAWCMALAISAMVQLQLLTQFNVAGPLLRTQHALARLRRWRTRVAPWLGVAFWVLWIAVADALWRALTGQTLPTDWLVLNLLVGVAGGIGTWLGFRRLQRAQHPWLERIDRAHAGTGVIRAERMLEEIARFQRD
1.23
5. AS16_3622 (protein) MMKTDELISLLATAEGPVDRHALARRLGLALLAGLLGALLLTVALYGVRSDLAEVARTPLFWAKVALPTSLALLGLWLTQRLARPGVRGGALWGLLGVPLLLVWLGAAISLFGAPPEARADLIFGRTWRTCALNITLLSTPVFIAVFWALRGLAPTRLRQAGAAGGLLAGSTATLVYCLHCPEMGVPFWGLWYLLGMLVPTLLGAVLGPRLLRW
4.75
6. AS15_436 (protein) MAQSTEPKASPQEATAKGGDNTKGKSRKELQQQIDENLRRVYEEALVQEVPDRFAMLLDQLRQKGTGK
5.96
